Ref: patent US20230250157A1

- assay-system: Khosta2 RBD
- method-summary: ELISA
Catalogue of EC50 readings, one per entry.

Solved entries (count: 3):
M8a-11 (antibody, V domains shown) VH: EVQLQQSGPELVKPGASVKIPCKASGYTFTDYNMDWVKQSHEKSLEWIGEIDPNNGDTIYNQKFKGKASLTVDKSSSTAYMELRSLTSEDTAVYYCAKRGYYGSSLWWYFDVWGTGTTVTVSS VL: DIQMTQSSSSFSVSLGDRVTITCKASEDIYIRLAWYQQRPGNAPRLLISNAISLETGVPSRFSGSGSGKDYTLSITSLQTEDVATYYCQQYWSTPWTFGGGTKLEIK | > 10 µg/mL
M8a-30 (antibody, V domains shown) VH: QVHLQQSGPELVKPGASVKISCKASGYGFSSSWMNWVKQRPGKGLEWIGRIYPGDGDTNYNDKFQGKATLTADRSSSTAYMHLTSLTSADSAVYFCARSLLYSFDYWGQGTTLTVSS VL: DVVVTQTPLSLPVSFGDQVSISCRSSQSLAGSYGHTYLSWYLHKSGQSPQLLIYGISNRFSGVPDRFSGSGSGTDFTLKISTIKPEDLGMYYCLQGTHQPLTFGAGTKLELK | > 10 µg/mL
M8a-25 (antibody, V domains shown) VH: EVQLQQSVAELVRPGASVKLSCTASGFNIKNTYMHWVKQRPEQGLEWIGRIDPSIDHTRYAPKFQGKAVITAFTSSNTAYLQLSSLTSEDTAIYYCAREGGGNYPYYYAIDYWGQGTSVTVSS VL: DIQMTQSSSSFSVSLGDRVTITCKASEDIYIRLAWYQQRPGNAPRLLISNAISLETGVPSRFSGSGFGKDHTLSITSLQTEDVATYYCQQYWSTPWTFGGGTKLEIK | > 10 µg/mL

Now for another entry.
Query: Check the records and state EC50 for HSW-1 (antibody, V domains shown) VH: QVQLQQPGAELVKPGTSMKLSCKASGYTFTSYWMHWVKQRPGQGLEWIGMIHPNSGSTKYNENFKSKATLTVDKSSSTAYMQFSSLTSEDSAVYYCVRSGSYYGTTYDYFDYWGQGTTLTVSS VL: DIVLTQSPASLAVSLGQRATISCRASESVNIYGNSFMHWYQQKPGQPPKLLIFRASNLESGIPVRFSGSGSRTDFTLTINPVEADDVATYYCHQSNEDPFTFGSGTKLEIK
Response: > 10 µg/mL
